Test system: oxidation of the L-DOPA under the action of the bacterial extract (intracellular extract of Cutibacterium acnes CIP 53.117)
Experiment: In vitro evaluation of the ability to inhibit the development of the colour (absorbance at 475 nm of L-DOPA + Cutibacterium acnes extract)
Assay type: biochemical
Details: test compound 12.5 μM; duration 100 minutes; 32° C.
// optical density at 475 nm lookup, one value per entry
Lab note: record the figure alone, no unit after it.

The compound listed as CCOC(=O)CNC(=O)c1ccc[nH]c1=S shows optical density at 475 nm equal to 0.0659

Memo: CCOC(=O)CN(C)C(=O)c1ccc[nH]c1=S , reported optical density at 475 nm: 0.0696

Item: CN(CC(=O)O)C(=O)c1ccc[nH]c1=S | optical density at 475 nm: 0.0686

Form field optical density at 475 nm, entry CCNC(=O)c1ccc[nH]c1=S : 0.0661

----------
System: oxidation of the L-DOPA under the action of the bacterial extract (intracellular extract of Cutibacterium acnes CIP 53.117)
Test: In vitro evaluation of the ability to inhibit the development of the colour (absorbance at 475 nm of L-DOPA + Cutibacterium acnes extract)
Assay type: biochemical
Settings: test compound 25 μM; duration 80 minutes; 32° C.
ENDPOINT NAME: optical density at 475 nm

>>> df
                     sample_smiles              endpoint_name  value_measured
0  CCOC(=O)CN(C)C(=O)c1ccc[nH]c1=S  optical density at 475 nm          0.0682

The reported value for CCOC(=O)CNC(=O)c1ccc[nH]c1=S in terms of optical density at 475 nm is 0.0602

Data point: CN(CC(=O)O)C(=O)c1ccc[nH]c1=S ; optical density at 475 nm = 0.0651

So for CCNC(=O)c1ccc[nH]c1=S , the logged optical density at 475 nm turned out to be 0.0611

Recorded values, source patent US20230372221A1.
